Target: WNK2 (Homo sapiens)
Sequence (Q9Y3S1 whole entry): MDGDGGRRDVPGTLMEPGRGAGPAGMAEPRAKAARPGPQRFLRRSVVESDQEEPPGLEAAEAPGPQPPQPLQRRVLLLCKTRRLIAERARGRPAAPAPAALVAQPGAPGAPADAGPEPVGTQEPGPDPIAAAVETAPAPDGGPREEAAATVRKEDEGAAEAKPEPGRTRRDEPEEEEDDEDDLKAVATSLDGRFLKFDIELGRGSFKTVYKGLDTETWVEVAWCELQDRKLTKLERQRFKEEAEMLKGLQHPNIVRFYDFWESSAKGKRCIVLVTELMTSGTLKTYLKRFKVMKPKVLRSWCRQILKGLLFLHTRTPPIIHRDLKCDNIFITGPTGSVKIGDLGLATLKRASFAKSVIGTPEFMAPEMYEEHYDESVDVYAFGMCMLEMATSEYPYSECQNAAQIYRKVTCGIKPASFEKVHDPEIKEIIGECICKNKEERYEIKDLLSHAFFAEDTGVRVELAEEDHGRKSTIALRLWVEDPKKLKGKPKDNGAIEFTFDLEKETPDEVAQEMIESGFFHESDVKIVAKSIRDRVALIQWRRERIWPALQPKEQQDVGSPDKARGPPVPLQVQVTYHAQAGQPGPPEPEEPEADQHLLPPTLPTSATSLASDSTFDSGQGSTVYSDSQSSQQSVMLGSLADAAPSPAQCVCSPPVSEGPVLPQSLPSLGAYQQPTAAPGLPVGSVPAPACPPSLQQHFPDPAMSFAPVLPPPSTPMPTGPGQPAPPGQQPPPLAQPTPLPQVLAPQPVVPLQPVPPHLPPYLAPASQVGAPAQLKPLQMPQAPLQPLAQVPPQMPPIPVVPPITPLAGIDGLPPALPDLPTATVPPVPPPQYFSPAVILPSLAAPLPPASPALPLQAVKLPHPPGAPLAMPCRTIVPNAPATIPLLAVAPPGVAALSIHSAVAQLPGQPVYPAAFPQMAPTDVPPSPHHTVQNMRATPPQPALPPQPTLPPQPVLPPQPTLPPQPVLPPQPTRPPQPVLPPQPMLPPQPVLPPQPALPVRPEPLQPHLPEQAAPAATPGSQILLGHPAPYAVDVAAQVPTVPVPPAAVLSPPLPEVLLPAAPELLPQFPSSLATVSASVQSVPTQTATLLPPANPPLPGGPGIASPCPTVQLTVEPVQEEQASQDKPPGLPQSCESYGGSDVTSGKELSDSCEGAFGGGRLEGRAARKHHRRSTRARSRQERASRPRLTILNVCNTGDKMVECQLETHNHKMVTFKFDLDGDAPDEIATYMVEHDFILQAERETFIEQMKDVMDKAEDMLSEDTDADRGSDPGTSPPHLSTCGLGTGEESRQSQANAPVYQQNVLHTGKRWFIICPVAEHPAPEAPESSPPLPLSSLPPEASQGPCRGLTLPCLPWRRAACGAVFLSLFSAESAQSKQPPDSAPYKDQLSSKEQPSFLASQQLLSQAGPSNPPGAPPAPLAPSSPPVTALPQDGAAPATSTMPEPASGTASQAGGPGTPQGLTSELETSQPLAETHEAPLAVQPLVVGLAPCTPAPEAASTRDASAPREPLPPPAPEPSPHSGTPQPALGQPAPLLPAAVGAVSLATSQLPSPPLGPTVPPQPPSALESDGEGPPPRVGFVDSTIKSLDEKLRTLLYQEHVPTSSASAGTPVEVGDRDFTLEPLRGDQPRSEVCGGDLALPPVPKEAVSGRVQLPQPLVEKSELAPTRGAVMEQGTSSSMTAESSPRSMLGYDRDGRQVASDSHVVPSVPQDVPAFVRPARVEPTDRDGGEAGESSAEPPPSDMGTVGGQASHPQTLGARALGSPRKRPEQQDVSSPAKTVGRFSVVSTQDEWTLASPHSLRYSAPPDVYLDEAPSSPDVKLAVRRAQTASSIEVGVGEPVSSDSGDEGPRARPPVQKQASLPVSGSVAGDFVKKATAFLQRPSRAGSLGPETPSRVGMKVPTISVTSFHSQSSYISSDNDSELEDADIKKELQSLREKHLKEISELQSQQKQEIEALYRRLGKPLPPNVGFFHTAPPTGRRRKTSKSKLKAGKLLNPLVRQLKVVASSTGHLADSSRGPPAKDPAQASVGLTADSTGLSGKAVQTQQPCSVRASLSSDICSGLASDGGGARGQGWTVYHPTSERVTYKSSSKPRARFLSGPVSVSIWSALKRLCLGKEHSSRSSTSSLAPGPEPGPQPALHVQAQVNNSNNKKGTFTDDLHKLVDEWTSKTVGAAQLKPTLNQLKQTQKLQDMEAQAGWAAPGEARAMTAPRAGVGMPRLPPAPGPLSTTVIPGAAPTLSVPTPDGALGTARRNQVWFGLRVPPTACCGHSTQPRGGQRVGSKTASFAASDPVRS
Assay: ThermoFisher Kd Elect screening
Format: binding
Observable: Kd

Asked: Look up Kd of COc1cnc(Nc2cccc(S(N)(=O)=O)c2)nc1N1CCN(c2ccccc2)C(=O)C1 [CDD-1653] and report it.
Given back: > 3 µM

---

Target: BMPR2 kinase domain (Homo sapiens, UniProt Q13873)
Sequence (Q13873 188-517): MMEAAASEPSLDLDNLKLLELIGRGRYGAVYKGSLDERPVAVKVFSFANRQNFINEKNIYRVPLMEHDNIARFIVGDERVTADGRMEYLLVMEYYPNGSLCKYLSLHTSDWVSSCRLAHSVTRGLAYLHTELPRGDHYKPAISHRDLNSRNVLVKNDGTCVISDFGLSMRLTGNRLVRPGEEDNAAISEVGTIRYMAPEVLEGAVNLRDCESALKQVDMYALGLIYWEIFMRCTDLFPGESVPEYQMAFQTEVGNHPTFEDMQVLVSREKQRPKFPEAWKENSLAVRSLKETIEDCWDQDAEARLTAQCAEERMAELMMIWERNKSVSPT
Test: BMPR2 Kinase-Glo kinase inhibition assay
Assay type: biochemical
Conditions: compared to parent CDD-1115 (CDD-1280: relative to CDD-1281)
Observable: fold loss of BMPR2 potency (fold)
Please respond with the number in fold and leave the unit unwritten.

# annotated cases, reported fold loss of BMPR2 potency shown
Asked: # return recorded fold loss of BMPR2 potency for input `Cn1c(-c2ccc3cnccc3c2)nc2ccc(C(=O)NCc3cccc(C(N)=O)c3)cc21`
Given back: 2.7

Asked: Answer with the recorded fold loss of BMPR2 potency of `CNC(=O)[C@@H]1CC[C@@H](n2c(-c3cccc(Cl)c3)nc3ccc(C(=O)NCc4cccc(C(N)=O)c4)cc32)C1` only.
Given back: 160

Asked: Tell us which fold loss of BMPR2 potency value is on record for `CNC(=O)[C@@H]1CC[C@@H](n2c(-c3cc(Cl)cc(Cl)c3)nc3ccc(C(=O)NCc4cccc(C(N)=O)c4)cc32)C1`
Given back: 160

---
Asked: Please supply the value of reported fold loss of BMPR2 potency for the item `CNC(=O)[C@@H]1CC[C@@H](n2c(-c3ccc4cnccc4c3)nc3ccc(C(=O)NCc4ccccc4)cc32)C1`
Given back: 6.2

Ref: paper PMC9924264
